Molecular target: T1, rat VPAC2 receptor (rat, UniProt P35000 23-437)
T1 construct: whole, on cells; transfected CHO-PO cells in DiscoveRx
T1 sequence (looked up): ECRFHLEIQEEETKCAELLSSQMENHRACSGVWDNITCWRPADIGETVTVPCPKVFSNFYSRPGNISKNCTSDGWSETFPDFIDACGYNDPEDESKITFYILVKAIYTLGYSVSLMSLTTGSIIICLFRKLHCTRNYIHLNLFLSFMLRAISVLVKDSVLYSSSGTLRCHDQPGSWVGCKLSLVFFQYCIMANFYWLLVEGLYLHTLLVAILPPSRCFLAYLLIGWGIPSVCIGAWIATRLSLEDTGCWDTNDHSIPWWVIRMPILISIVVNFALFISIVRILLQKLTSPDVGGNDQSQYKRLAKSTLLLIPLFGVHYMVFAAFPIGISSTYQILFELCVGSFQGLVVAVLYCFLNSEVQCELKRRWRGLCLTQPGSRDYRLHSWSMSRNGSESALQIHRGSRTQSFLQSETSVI
Assay: IC50 on rat VPAC1 over IC50 on rat VPAC2
Where no end group is shown, it is not given here. [ ]: non-standard residue; d: D form. The star is where a group is joined. Hexanoyl = CCCCCC(=O)*; Aib = CC(C)(N)C(=O)O
OUTCOME_MEASURE: VPAC1/VPAC2 (ratio of IC50 values)
Reply briefly: the number, and no unit.

[[record]]
binder = "Hexanoyl-HSDAVFTDNYTRLR[Aib]QVAA[Aib]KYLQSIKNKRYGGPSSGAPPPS (ends and bridges not checked) [P261]"
quantitative_readout = 363

[[record]]
binder = "MHSDAVFTDNYTRLRKQVAAKKYLQSIKNKRYGGPSSGAPPPS (N-terminal methionine added (M-), also called VPAC2-P104) [P104]"
quantitative_readout = 977


Field request: VPAC1/VPAC2 (ratio of IC50 values) | item: Hexanoyl-HSDAVFTDNYTRLLAKLALQKYLQSIKNKRYGGPSSGAPPPS (also called VPAC2-P119) [P119]
47

Field request: VPAC1/VPAC2 (ratio of IC50 values) | item: Hexanoyl-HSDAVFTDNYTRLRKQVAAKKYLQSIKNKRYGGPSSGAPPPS (also called VPAC2-P31) [P31]
546

Field request: VPAC1/VPAC2 (ratio of IC50 values) | item: Hexanoyl-HSDAVFTDNYTRLR[Aib]QLAA[Aib]KYLQSIKNKGGPSSGAPPPS (ends and bridges not checked) [P292]
269
